# assay notes: Maximum tolerated dose and therapeutic index
# assay context: in vivo; dose 30 mg/kg (composition selon l'invention); read-out: indice thérapeutique
measured parameter: selectivity ratio

- [O-][S+](c1cc(Cl)cc(Cl)c1O)c1cc(Cl)cc(Cl)c1O [bithionol sulfoxyde]: 5

###

# assay notes: Maximum tolerated dose and therapeutic index
# assay context: in vivo; dose 40 mg/kg de poids vif (earlier forms); read-out: indice thérapeutique
measured parameter: selectivity ratio

- [O-][S+](c1cc(Cl)cc(Cl)c1O)c1cc(Cl)cc(Cl)c1O [bithionol sulfoxyde]: < 4
